# System tested: D(2) dopamine receptor (Homo sapiens) (UniProt P14416)
# Sequence (P14416 whole entry, looked up): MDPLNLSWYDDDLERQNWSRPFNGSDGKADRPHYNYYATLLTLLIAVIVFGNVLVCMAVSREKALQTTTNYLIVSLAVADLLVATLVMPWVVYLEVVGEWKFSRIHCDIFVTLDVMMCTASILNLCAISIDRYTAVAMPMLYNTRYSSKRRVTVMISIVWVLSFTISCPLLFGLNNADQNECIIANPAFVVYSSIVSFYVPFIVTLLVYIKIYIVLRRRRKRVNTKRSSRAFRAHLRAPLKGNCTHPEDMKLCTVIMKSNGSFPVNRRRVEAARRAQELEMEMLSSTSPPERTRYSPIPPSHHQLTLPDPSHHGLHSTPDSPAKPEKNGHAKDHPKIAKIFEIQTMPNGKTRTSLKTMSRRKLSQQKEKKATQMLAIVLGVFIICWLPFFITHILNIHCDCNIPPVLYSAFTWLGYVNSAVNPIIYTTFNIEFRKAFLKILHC
# Experimental details: HTS Assay for Allosteric Antagonists of the Human D2 Dopamine Receptor: Primary Screen for Antagonists; further: 0% is about no effect
# Test conditions: HEK293 TREx D2 cells, calcium flux, dopamine EC80; at 10 µM; hits give high values
# Experimental: NIH Chemical Genomics Center [NCGC] NIH Molecular Libraries Probe Centers Network [MLPCN] […] Freshly passaged cells are plated in 1536 well black, clear bottom plates at a density of 4000 cells/well in 3 ul of complete media containing 1x tetracycline inducer. […] Agonist read: A 10 cycle (1 second/cycle) baseline measurement is taken and then the FDSS online 1536 pintool delivers 23 nl of compound library (as well as dopamine controls) to the plate. […]
The campaign covered roughly 340,000 compounds. About 6,900 (2%) were called active. This is one part of a sample in which actives are shown more often than they occur.
Measured quantity: inhibition (%)
Numbers only; they are read as %.

Query string: Consider the compound shown here: `Cc1nn(-c2ccccc2)c(Cl)c1C(=O)Nc1ccccc1` What is its recorded inhibition?
Result string: -28.3

Query string: Please report the recorded inhibition for `Cc1ccc(NC(=O)Nc2cc(-c3ccccc3)nn2C)cc1Cl` .
Result string: -13.2

Query string: Given the entry `O=C(NNC(=O)c1cc(-c2ccccc2Cl)nc2ccccc12)c1csc(N2CCOCC2)n1` , report its measured inhibition.
Result string: 4.74

Query string: // inhibition lookup, key: `O=C(CSc1nc2ccccc2[nH]1)N/N=C/C=C\c1ccccc1[N+](=O)[O-]`
Result string: -1.1

Query string: Given `Cc1c(C(=O)Nc2cccc(-c3nnc4n3CCCCC4)c2)oc2ccccc12` , state its recorded inhibition.
Result string: 60

Query string: I have this compound here, `Cc1cc(NC(=O)Nc2ccc(Cl)cc2)n(-c2ccccc2)n1` , and I need its recorded inhibition.
Result string: 40.6

Query string: Field request: inhibition | item: `Oc1c(CN2CCN(c3ccc(F)cc3)CC2)cc(Cl)c2cccnc12`
Result string: 49.1

Query string: I am curious: what inhibition value has been reported for CC(OC(=O)CN1C(=O)c2ccccc2C1=O)C(=O)c1ccccc1 (stereo not drawn) ?
Result string: 10.6

Query string: Which inhibition reading was recorded for the compound `Cc1c(C(=O)NC2CCCCC2)oc2ccccc12` ?
Result string: 15.1

Query string: Would you kindly share the measured inhibition for `COc1ccc(OC)c(/C=C/C(=O)c2ccc3c(c2)OCO3)c1` ?
Result string: 6.23

Query string: Fill in: inhibition of `COc1ccc(NC(=O)CN(C)C(=O)c2cccc(S(=O)(=O)N3CCN(c4ccccc4)CC3)c2)cc1` is ___
Result string: -9.07

Query string: What value of measured inhibition is listed for `CC(=O)Nc1ccc(NC(=O)CSc2nnc(C3CC3)n2-c2ccccc2)cc1` ?
Result string: 2.45

Query string: What value of inhibition has been recorded for this entry: CN(CC(=O)Nc1ccc(F)c(F)c1F)C(=O)C1CC(=O)N(C2CCCC2)C1 (stereo not drawn)
Result string: -11.5

Query string: Return reported inhibition; argument: `COc1cc2ccccc2cc1C(=O)Nc1ccncc1`
Result string: 5.03

Query string: Give its inhibition value. Item: `CCCCN(C(=O)c1ccc2ccccc2c1)c1c(N)n(CCCC)c(=O)[nH]c1=O`
Result string: -22.6

Query string: Need inhibition, item `COc1ccc(NC(=O)c2sccc2SCC#N)cc1`
Result string: 31.6

Query string: Name the recorded inhibition for `OCC[C@H]1C[C@H](O)[C@@H](O)[C@]2(CCc3ccccc3O2)O1` .
Result string: 4.64

Query string: Endpoint output: inhibition of CC1(NC(=O)CCS(=O)(=O)c2ccc(Cl)cc2)CCS(=O)(=O)C1 (stereo not drawn) . Value?
Result string: 9.74

Query string: // returns reported inhibition for input `COc1ccc(NC(=O)c2sc(N)nc2-c2ccccc2)cc1`
Result string: -6.34

Query string: Entry under review: `COCCN(CCOC)C(=S)Nc1ccccc1Cl` . Reported inhibition?
Result string: 3.22

Query string: Need inhibition of `COc1ccc(NC(=O)CSc2nc(C)cs2)cc1` , thanks.
Result string: 7.3

Query string: Using the record for `Cc1cc(NC(=O)Nc2ccccc2)n(-c2ccccc2)n1` , report its inhibition.
Result string: 31.4

Query string: Give its inhibition value. Item: `O=C(c1cccc(C(=O)N2CCN(c3ccc(F)cc3)CC2)c1)N1CCN(c2ccc(F)cc2)CC1`
Result string: 19.6
